Reference source: patent US12115373B2

test: Serum half-life of budiodarone; type: in vivo; conditions: human, after administration
assay.readout: half-life

* CC[C@H](C)OC(=O)Cc1oc2ccccc2c1C(=O)c1cc(I)c(OCCN(CC)CC)c(I)c1 | 6 to 7 h
